Measured values drawn from the Kinase Knowledgebase extract (Sharma et al. 2016) for this set.

- Target of assay: PIK3CA (human) (UniProt P42336)
- Sequence (P42336 whole entry, looked up): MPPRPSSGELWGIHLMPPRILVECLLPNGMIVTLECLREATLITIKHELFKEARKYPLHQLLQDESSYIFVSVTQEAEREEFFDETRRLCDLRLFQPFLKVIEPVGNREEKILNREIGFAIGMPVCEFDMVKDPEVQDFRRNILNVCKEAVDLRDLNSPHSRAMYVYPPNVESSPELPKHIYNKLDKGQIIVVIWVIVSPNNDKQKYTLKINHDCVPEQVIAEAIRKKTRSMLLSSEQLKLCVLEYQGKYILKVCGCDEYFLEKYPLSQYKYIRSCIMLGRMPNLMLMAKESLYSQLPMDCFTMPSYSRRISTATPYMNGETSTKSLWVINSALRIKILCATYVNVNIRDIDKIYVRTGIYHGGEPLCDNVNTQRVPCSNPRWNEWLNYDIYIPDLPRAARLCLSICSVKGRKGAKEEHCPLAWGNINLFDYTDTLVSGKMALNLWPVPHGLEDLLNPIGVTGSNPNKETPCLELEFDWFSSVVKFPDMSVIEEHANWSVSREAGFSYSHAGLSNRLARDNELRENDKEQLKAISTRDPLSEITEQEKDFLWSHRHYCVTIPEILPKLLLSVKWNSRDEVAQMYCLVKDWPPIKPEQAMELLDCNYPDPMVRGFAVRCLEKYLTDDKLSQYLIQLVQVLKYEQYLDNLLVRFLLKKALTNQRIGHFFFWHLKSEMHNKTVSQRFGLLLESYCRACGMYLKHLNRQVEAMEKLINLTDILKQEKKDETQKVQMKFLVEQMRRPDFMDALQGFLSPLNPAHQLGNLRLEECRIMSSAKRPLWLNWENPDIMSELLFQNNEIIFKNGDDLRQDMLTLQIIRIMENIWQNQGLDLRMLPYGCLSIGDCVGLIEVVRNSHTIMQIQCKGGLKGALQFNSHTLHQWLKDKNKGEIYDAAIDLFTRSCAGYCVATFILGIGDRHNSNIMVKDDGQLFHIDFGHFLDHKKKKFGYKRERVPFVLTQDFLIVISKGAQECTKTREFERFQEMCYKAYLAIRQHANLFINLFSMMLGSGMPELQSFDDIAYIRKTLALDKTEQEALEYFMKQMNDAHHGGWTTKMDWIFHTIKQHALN
- Assay comment: Inhibition of PIK3CA Kinase Activity in HeLa Cells
Outcome measure: EC50 (µM)
Kindly answer with a numeric value in µM, unit omitted.

Cc1ccc(Sc2cccc3[nH]c4nc(N)nc(N)c4c23)cc1 12.2

query: Dear colleague, I am looking for the recorded EC50 of the following compound: Nc1nc(N)c2c(n1)[nH]c1cccc(Sc3ccccc3)c12
result: 21.6

---

- Target of assay: MAPK14 (human)
- Assay comment: Inhibition of Doubly Phosphorylated MAPK14 Kinase Activity (Biochemical Assay)
Outcome measure: IC50 (nM)
Respond with the bare value in nM.

Known IC50 results, listed for orientation:
NC(=O)Cc1cccc(-n2nc(-c3ccccc3F)cc2NC(=O)Nc2cccc(Cl)c2Cl)c1 10
Cc1ccsc1-c1cc(NC(=O)Nc2cccc(Cl)c2Cl)n(-c2cccc(CC(N)=O)c2)n1 86
NC(=O)Cc1cccc(-n2nc(-c3ccccc3)cc2NC(=O)Nc2cccc(Cl)c2Cl)c1 12
NC(=O)Cc1cccc(-n2nc(-c3cccc(F)c3)cc2NC(=O)Nc2cccc(Cl)c2Cl)c1 21

query: Any idea what IC50 came out for NC(=O)Cc1cccc(-n2nc(-c3cccc(Cl)c3)cc2NC(=O)Nc2cccc(Cl)c2Cl)c1 on MAPK14 (human)?
result: 58
